- tested.system: Indoleamine 2,3-Dioxygenase (IDO1) in SKOV-3 cells (Homo sapiens)
- Construct: endogenous in cells
- Sequence (P14902 whole entry): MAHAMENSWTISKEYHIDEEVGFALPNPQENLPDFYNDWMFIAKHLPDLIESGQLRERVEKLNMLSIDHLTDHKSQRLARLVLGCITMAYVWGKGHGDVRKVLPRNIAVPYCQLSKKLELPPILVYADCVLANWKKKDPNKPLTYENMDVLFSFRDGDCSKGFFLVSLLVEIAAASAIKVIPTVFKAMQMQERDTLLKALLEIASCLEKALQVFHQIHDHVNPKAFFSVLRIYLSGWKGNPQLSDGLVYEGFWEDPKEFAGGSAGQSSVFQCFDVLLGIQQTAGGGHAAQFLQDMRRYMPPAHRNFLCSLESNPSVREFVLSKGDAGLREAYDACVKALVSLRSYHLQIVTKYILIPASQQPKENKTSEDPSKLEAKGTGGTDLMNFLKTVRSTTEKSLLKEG
- assay.details: SKOV-3 cellular indoleamine 2,3-dioxygenase assay
- condition.label: 50 ng/ml Interferon gamma, 100 μM L-Tryptophan, 24 hours, N-Formylkynurenin fluorescence, read-out: cell based activity (IC50)
pIC50: −log10 of the molar value.

- compound: "O=C(Nc1ccc(Cl)cc1)C(=O)N1CCC(c2ccnc3ccc(F)cc23)C(F)(F)C1 (centres unmarked) [1/46]"
  tested.system: "Indoleamine 2,3-Dioxygenase (IDO1) in SKOV-3 cells (Homo sapiens)"
  pIC50: "> 7.00"
- compound: "O=C(N[C@@H]1CCc2ccccc2C1)C(=O)N1CCC(c2ccnc3ccc(F)cc23)CC1 [5/1]"
  tested.system: "Indoleamine 2,3-Dioxygenase (IDO1) in SKOV-3 cells (Homo sapiens)"
  pIC50: "< 6.00"
- compound: "O=C(Nc1ccc(Cl)cc1F)C(=O)N1CCC(c2ccnc3ccccc23)CC1 [1/2]"
  tested.system: "Indoleamine 2,3-Dioxygenase (IDO1) in SKOV-3 cells (Homo sapiens)"
  pIC50: "> 7.00"
- compound: "O=C(Nc1ccc(OCC(F)(F)F)cc1)C(=O)N1CCC(c2ccnc3ccc(F)cc23)CC1 [1/41]"
  tested.system: "Indoleamine 2,3-Dioxygenase (IDO1) in SKOV-3 cells (Homo sapiens)"
  pIC50: "6.00 to 7.00"
- compound: "COc1cc(C2CCN(C(=O)C(=O)Nc3ccc(Cl)cn3)CC2)c2ccccc2n1 [1/34]"
  tested.system: "Indoleamine 2,3-Dioxygenase (IDO1) in SKOV-3 cells (Homo sapiens)"
  pIC50: "< 6.00"
- compound: "O=C(Nc1ccc(C(F)(F)F)cn1)C(=O)N1CCC(c2ccccc2Cc2ccccc2)CC1 [6/1]"
  tested.system: "Indoleamine 2,3-Dioxygenase (IDO1) in SKOV-3 cells (Homo sapiens)"
  pIC50: "< 6.00"
- compound: "O=C(Nc1ccc(C(F)F)cc1F)C(=O)N1CCC(c2ccnc3ccc(F)cc23)CC1 [1/25]"
  tested.system: "Indoleamine 2,3-Dioxygenase (IDO1) in SKOV-3 cells (Homo sapiens)"
  pIC50: "> 7.00"
- compound: "CC1(C)CC(c2ccnc3ccccc23)CCN1C(=O)C(=O)Nc1ccc(Cl)cn1 (centres unmarked) [1/11]"
  tested.system: "Indoleamine 2,3-Dioxygenase (IDO1) in SKOV-3 cells (Homo sapiens)"
  pIC50: "> 7.00"
- compound: "O=C(Nc1ccc(C(F)(F)F)c(F)c1)C(=O)N1CCC(c2ccnc3ccc(F)cc23)CC1 [1/21]"
  tested.system: "Indoleamine 2,3-Dioxygenase (IDO1) in SKOV-3 cells (Homo sapiens)"
  pIC50: "6.00 to 7.00"
- compound: "O=C(Nc1ccc(Cl)cc1)C(=O)N1CC[C@H](c2ccnc3ccc(F)cc23)[C@H](O)C1 (single isomer, unassigned) [10/1a]"
  tested.system: "Indoleamine 2,3-Dioxygenase (IDO1) in SKOV-3 cells (Homo sapiens)"
  pIC50: "6.00 to 7.00"
- compound: "O=C(Nc1ccc(Cl)cn1)C(=O)N1CCC(c2cccc(Cl)c2Cl)CC1 [2/5]"
  tested.system: "Indoleamine 2,3-Dioxygenase (IDO1) in SKOV-3 cells (Homo sapiens)"
  pIC50: "6.00 to 7.00"
- compound: "O=C(Nc1ccc(SC(F)(F)F)cc1)C(=O)N1CCC(c2ccnc3ccc(F)cc23)CC1 [1/38]"
  tested.system: "Indoleamine 2,3-Dioxygenase (IDO1) in SKOV-3 cells (Homo sapiens)"
  pIC50: "> 7.00"
- compound: "CN(C(=O)C(=O)N1CCC(c2ccnc3ccc(F)cc23)CC1)c1ccc(Cl)cn1 [2/3]"
  tested.system: "Indoleamine 2,3-Dioxygenase (IDO1) in SKOV-3 cells (Homo sapiens)"
  pIC50: "< 6.00"
- compound: "O=C(NC1Cc2ccc(F)cc21)C(=O)N1CCC2(CC1)COc1cc(C(F)(F)F)ccc12 (centres unmarked) [Example 103]"
  tested.system: "Indoleamine 2,3-Dioxygenase (IDO1) in SKOV-3 cells (Homo sapiens)"
  pIC50: "< 6.00"
- compound: "O=C(Nc1ccc(C(F)(F)F)cc1F)C(=O)N1CCC(c2ccnc3ccc(F)cc23)CC1 [1/17]"
  tested.system: "Indoleamine 2,3-Dioxygenase (IDO1) in SKOV-3 cells (Homo sapiens)"
  pIC50: "> 7.00"
- compound: "O=C(Nc1ccc(OC(F)F)cc1F)C(=O)N1CCC(c2ccnc3ccc(F)cc23)CC1 [1/40]"
  tested.system: "Indoleamine 2,3-Dioxygenase (IDO1) in SKOV-3 cells (Homo sapiens)"
  pIC50: "> 7.00"
- compound: "O=C(N[C@@H]1CCc2ccccc21)C(=O)N1CCC(c2ccnc3ccc(F)cc23)CC1 [8/1]"
  tested.system: "Indoleamine 2,3-Dioxygenase (IDO1) in SKOV-3 cells (Homo sapiens)"
  pIC50: "< 6.00"
